These data points were gathered from PubChem BioAssay (NCI).

System: SK-OV-3 ovarian
Test: NCI tumour cell line growth inhibition, 48 h
Outcome Measure: TGI

Q: Recorded TGI of CC(C)(C)c1ccc2c(c1)OCc1n[nH]c(n1)COc1cc(C(C)(C)C)ccc1OCCOCCO2 , please.
Result: 15.3 µM

Q: Recorded TGI of CC12CCC(C/C1=N\NC(N)=O)C2(C)C (stereo unspecified) , please.
Result: > 100 µM

Q: Recorded TGI of CC1OC(n2cc(F)c(=O)[nH]c2=O)C(O[Si](C)(C)C(C)(C)C)C1O[Si](C)(C)C(C)(C)C (stereo unspecified) , please.
Result: 32 µM

Q: Recorded TGI of N#CC(C#N)=Cc1cccc(Oc2ccccc2)c1 , please.
Result: > 100 µM

Q: Recorded TGI of O=CN(O)CC(=O)O , please.
Result: > 100 µM

Q: Recorded TGI of Cc1ncc([N+](=O)[O-])n1CCNC(=O)CCCCn1ccnc1[N+](=O)[O-] , please.
Result: > 100 µM

Q: Recorded TGI of COc1cc2c3c(n(C)c(=O)c2cc1OC)-c1cc2c(cc1/C3=C/CCCCBr)OCO2 , please.
Result: > 100 µM

Q: Recorded TGI of CC[P+](C#Cc1ccccc1)(c1ccccc1)c1ccccc1 , please.
Result: 9.43 µM

Q: Recorded TGI of Cc1ccc(C(=O)CC(Sc2cccc(Cl)c2Cl)c2ccc(Cl)cc2)cc1C (stereo unspecified) , please.
Result: 59.7 µM

Q: Recorded TGI of C=C(COC(C)=O)CC(/C=C(\C)CCC=C(C)C)OC(C)=O (stereo unspecified) , please.
Result: > 100 µM

Q: Recorded TGI of c1ccc2c(c1)N=C(c1cccc3ccccc13)CC(c1cccc3ccccc13)S2 (stereo unspecified) , please.
Result: 29.8 µM

Q: Recorded TGI of C[C@@H]1C(=O)CC2(O)[C@@]13C[C@@H](OC(=O)[C@@H]3O)[C@@H](C)[C@@]21COC1=O (stereo partly specified) , please.
Result: > 100 µM

Q: Recorded TGI of Clc1ccc(OCc2nnc3n2N=C(c2ccc(Cl)cc2Cl)CS3)c(Cl)c1 , please.
Result: > 100 µM

Q: Recorded TGI of COc1cc(-c2cn(C)c(=O)c(C)c2C)cc(OC)c1CN1CC[C@H](N2CCN(c3ccc(N[C@H]4CCC(=O)NC4=O)cc3F)CC2)C(F)(F)C1 , please.
Result: 36.2 µM

Q: Recorded TGI of COC(=O)C(Cc1ccccc1)N/C=C\C(=O)c1ccc(Cl)cc1 (stereo unspecified) , please.
Result: 92.4 µM

Q: Recorded TGI of O=C(NCCCNCCCCNCCCNC(=O)C(F)(F)F)C(F)(F)F , please.
Result: > 100 µM

Q: Recorded TGI of CCOC(=O)C(NC(=O)c1ccc(N=NN(C)C)cc1)C(C)C (stereo unspecified) , please.
Result: > 100 µM

Q: Recorded TGI of CC(C)(C)C1(O)Cc2ccccc2C(=O)O1 (stereo unspecified) , please.
Result: > 100 µM

Q: Recorded TGI of C=C(C)[C@@H]1CC[C@@]2(C(=O)O)CC[C@]3(C)C(CCC4[C@@]5(C)CCC(OS(=O)(=O)c6ccccc6)C(C)(C)C5CC[C@]43C)C12 (stereo partly specified) , please.
Result: 44.4 µM

Q: Recorded TGI of COC(=O)c1cc(C(=O)OC)cc(-c2ccc3c(c2)-c2nc4c(c(-c5ccc(OC)cc5)c2CC3)CCc2ccc(-c3cc(C(=O)OC)cc(C(=O)OC)c3)cc2-4)c1 , please.
Result: > 100 µM

Q: Recorded TGI of CCCCCCNc1nc(NCCCCCC)c2[nH]c(NCCCCCC)nc2n1 , please.
Result: > 74.1 µM

###

System: SW-620 colon
Assay: NCI tumour cell line growth inhibition, 48 h; in the data active = GI50 below about 0.43 µM; inactive = the rest
# output must be one of True = active, False = inactive

Q: What outcome does the record of this test show for CC(=O)n1c(-c2ccc(Cl)cc2)nc2c(c1=O)C(c1ccc(Cl)cc1)c1sc3c(Cl)cccc3c1O2 (stereo not drawn) ?
Result: True

Q: What outcome does the record of this test show for CCn1c(-c2nonc2N)nc2ccc(F)cc21 ?
Result: False

Q: What outcome does the record of this test show for CC1=C(C)C(=O)O[C@@H]([C@](C)(O)[C@]2(O)CC[C@@]3(O)[C@@H]4C[C@H]5O[C@]56CC=CC(=O)[C@]6(C)[C@H]4CC[C@]23C)C1 ?
Result: True

Q: What outcome does the record of this test show for CN1CCN(Cc2ccc(NC(=O)c3ccc(C(C)(C)C)c(C#Cc4cnc5cccnn45)c3)cc2C(F)(F)F)CC1 ?
Result: False

Q: What outcome does the record of this test show for CCCNCc1cc(C)cc2c1nc(N1CCNCC1)n2Cc1cc(C)c(F)c(C)c1 ?
Result: False

Q: What outcome does the record of this test show for C=CCOc1c(Br)cc(Br)cc1Br ?
Result: False

Q: What outcome does the record of this test show for CCOC(=O)[C@@H](C)C[C@H](Cc1ccccc1)NC(=O)c1csc([C@@H](C[C@H](C(C)C)N(C)C(=O)[C@@H](NC(=O)[C@H]2CCCCN2C)C(C)(C)C)OC(C)=O)n1 ?
Result: True

Q: What outcome does the record of this test show for Cc1ccc(C(=O)CC(Sc2cccc(Cl)c2Cl)c2ccc(Cl)cc2)cc1C (stereo not drawn) ?
Result: False

###

Tested on: SK-MEL-2 melanoma
Assay: NCI tumour cell line growth inhibition, 48 h
Outcome Measure: TGI (µM)
Supply the numeric figure in µM, leaving out any unit text.

Q: Recorded TGI of c1ccc2c(c1)N=C(c1cccc3ccccc13)CC(c1cccc3ccccc13)S2 (stereo not given) , please.
Result: 33

Q: Recorded TGI of CCCCCC(=O)Oc1ccc(/C(=C(\C)c2ccc(OC)cc2)c2ccc(OCCN3CCCCC3)cc2)cc1 , please.
Result: 23.8

###

System: ACHN renal
Experiment: NCI tumour cell line growth inhibition, 48 h
Could you please report measured TGI for the items listed next?

Q: Notebook entry, ACHN renal assay: TGI of Cc1cn(C2CC(OC(c3ccccc3)(c3ccccc3)c3ccccc3)C(COC(c3ccccc3)(c3ccccc3)c3ccccc3)O2)c(=O)[nH]c1=O (configuration not stated) = ?
Result: > 100 µM

Q: Notebook entry, ACHN renal assay: TGI of N#Cc1c(N)c(C(=O)O)nn(-c2cccc(C(F)(F)F)c2)c1=O = ?
Result: > 100 µM

Q: Notebook entry, ACHN renal assay: TGI of Cc1sc(C)c(-c2ccc(CO)o2)c1-c1ccc(CO)o1 = ?
Result: > 100 µM

Q: Notebook entry, ACHN renal assay: TGI of CC1=C(C(=O)NNC(=O)CC#N)CC(C(=O)NNC(=O)CC#N)=C(C)N1 = ?
Result: > 100 µM

Q: Notebook entry, ACHN renal assay: TGI of CN1CCN(Cc2ccc(NC(=O)c3ccc(C(C)(C)C)c(C#Cc4cnc5cccnn45)c3)cc2C(F)(F)F)CC1 = ?
Result: 3.69 µM

Q: Notebook entry, ACHN renal assay: TGI of CC1(C)OC(CCO)CN1C(=O)OCc1ccccc1 (configuration not stated) = ?
Result: > 100 µM

Q: Notebook entry, ACHN renal assay: TGI of COc1cc2c(cc1O)CC[n+]1cc3c(OC)c(OC)ccc3cc1-2 = ?
Result: > 100 µM

Q: Notebook entry, ACHN renal assay: TGI of c1cc[c]([Sn]([S]c2cccc3cccnc23)([c]2ccccc2)[c]2ccccc2)cc1 = ?
Result: 0.116 µM

Q: Notebook entry, ACHN renal assay: TGI of COC(=O)c1sc2ncc3c(c2c1N)CC(C)CC3 (configuration not stated) = ?
Result: > 100 µM

Q: Notebook entry, ACHN renal assay: TGI of CCOC(=O)C1=C(C)NC(=O)N([N+](=O)[O-])C1c1ccccc1C(F)(F)F (configuration not stated) = ?
Result: > 100 µM

Q: Notebook entry, ACHN renal assay: TGI of CCOC1NC(=O)c2ccccc21 (configuration not stated) = ?
Result: > 100 µM

Q: Notebook entry, ACHN renal assay: TGI of CC[P+](C#Cc1ccccc1)(c1ccccc1)c1ccccc1 = ?
Result: 13 µM

Q: Notebook entry, ACHN renal assay: TGI of CCOC(=O)/C(=C/c1ccco1)P(=O)(OCC)OCC = ?
Result: > 100 µM

Q: Notebook entry, ACHN renal assay: TGI of CCN(CC)C(=S)SS(=O)(=O)c1ccc(C)cc1 = ?
Result: > 100 µM

Q: Notebook entry, ACHN renal assay: TGI of COc1cc(/C=C/C(=O)O)ccc1OS(=O)(=O)O = ?
Result: > 100 µM

Q: Notebook entry, ACHN renal assay: TGI of O=P(O)(O)C(O)(Cn1ccnc1)P(=O)(O)O = ?
Result: > 84.8 µM

Q: Notebook entry, ACHN renal assay: TGI of COc1cc(-c2c3c(cc4c2OCO4)[C@@H](Nc2ccc4c(c2)Cc2cc(N[C@@H]5c6cc7c(cc6C(c6cc(OC)c(O)c(OC)c6)[C@H]6C(=O)OC[C@H]56)OCO7)ccc2-4)[C@H]2COC(=O)[C@@H]2C3)cc(OC)c1O (some centres not stated) = ?
Result: > 100 µM

Q: Notebook entry, ACHN renal assay: TGI of C=C(COC(C)=O)CC(/C=C(\C)CCC=C(C)C)OC(C)=O (configuration not stated) = ?
Result: > 100 µM

Q: Notebook entry, ACHN renal assay: TGI of Cc1cc(C)nc(NS(=O)(=O)c2ccc(Nc3c4ccccc4nc4c(C(=O)N5CCN(CCOS(C)(=O)=O)CC5)ccc(Cl)c34)cc2)n1 = ?
Result: > 100 µM

Q: Notebook entry, ACHN renal assay: TGI of O=c1oc2ccccc2c2nc3ccccc3cc12 = ?
Result: > 100 µM

Q: Notebook entry, ACHN renal assay: TGI of C(=N/Nc1ccc(-c2nc3ccccc3[nH]2)cc1)/c1c(-c2ccccc2)[nH]c2ccccc12 = ?
Result: > 100 µM

Q: Notebook entry, ACHN renal assay: TGI of Cc1cc2c(cc1Cl)SC(NNc1cnc3ccccc3n1)=NS2(=O)=O = ?
Result: > 100 µM

Q: Notebook entry, ACHN renal assay: TGI of O=C(N/N=C/c1ccc(Cl)cc1Cl)c1ccccc1Nc1cccc(C(F)(F)F)c1 = ?
Result: 16.5 µM

Q: Notebook entry, ACHN renal assay: TGI of OCC1OC(O[C@H]2CN3[C@H](O)[C@@H](O)[C@H](O)[C@H]3C2O)C(O)C(O)C1O (some centres not stated) = ?
Result: > 100 µM

Q: Notebook entry, ACHN renal assay: TGI of CCCNCc1cc(C)cc2c1nc(N1CCNCC1)n2Cc1cc(C)c(F)c(C)c1 = ?
Result: 15.5 µM

Q: Notebook entry, ACHN renal assay: TGI of O=c1c(Cc2ccccc2)c(-c2ccccc2)[nH]n1C1=NCCN1 = ?
Result: > 100 µM

Q: Notebook entry, ACHN renal assay: TGI of Cc1ncc([N+](=O)[O-])n1CCNC(=O)CCCCn1ccnc1[N+](=O)[O-] = ?
Result: > 100 µM

Q: Notebook entry, ACHN renal assay: TGI of Cc1ccsc1C(=S)Nc1ccc(Cl)c(C(=O)OC(C(C)C)C(C)C)c1 = ?
Result: > 100 µM

Q: Notebook entry, ACHN renal assay: TGI of N#CC(C#N)=Cc1cccc(Oc2ccccc2)c1 = ?
Result: 34.1 µM

Q: Notebook entry, ACHN renal assay: TGI of CN(C)c1nc(=NCc2ccccn2)ss1 = ?
Result: > 10 µM

Q: Notebook entry, ACHN renal assay: TGI of Cc1noc(C)c1-c1ccc2[nH]c(=O)n3c2c1OC[C@@H]3c1ccccn1 = ?
Result: > 100 µM

Q: Notebook entry, ACHN renal assay: TGI of CCCS(=O)(=O)c1nc(NC2CC2)cc(-c2ccc3c(ccn3C3CC(C)(C)NC(C)(C)C3)c2)n1 = ?
Result: 3.35 µM

Q: Notebook entry, ACHN renal assay: TGI of CCN(Cc1c(F)cccc1F)c1ccc(CO)c(Cl)c1 = ?
Result: > 74.5 µM

Q: Notebook entry, ACHN renal assay: TGI of COC1OC2COC(C)(C)OC2C2OC(C)(C)OC12 (configuration not stated) = ?
Result: > 100 µM

Q: Notebook entry, ACHN renal assay: TGI of O=C1NN=C(c2c[nH]c3ccccc23)CC1NCc1ccccc1 (configuration not stated) = ?
Result: > 100 µM

Q: Notebook entry, ACHN renal assay: TGI of O=C(CN=C(CN(c1ccccc1)c1ccccc1)Oc1c(Cl)cc(Cl)cc1Cl)n1cnc2ccccc21 = ?
Result: > 100 µM

Q: Notebook entry, ACHN renal assay: TGI of O=CN(O)CC(=O)O = ?
Result: > 100 µM

Q: Notebook entry, ACHN renal assay: TGI of COn1cc(CO)c2ccccc21 = ?
Result: > 100 µM

Q: Notebook entry, ACHN renal assay: TGI of c1ccc2c(c1)N=C(c1cccc3ccccc13)CC(c1cccc3ccccc13)S2 (configuration not stated) = ?
Result: 23.5 µM

Q: Notebook entry, ACHN renal assay: TGI of C=CCOc1c(Br)cc(Br)cc1Br = ?
Result: > 100 µM

Q: Notebook entry, ACHN renal assay: TGI of CC(C)(C)c1ccc2c(c1)OCc1n[nH]c(n1)COc1cc(C(C)(C)C)ccc1OCCOCCO2 = ?
Result: 14.8 µM

Q: Notebook entry, ACHN renal assay: TGI of CCOC(=O)Cc1nn2c(=O)cc(C)nc2s1 = ?
Result: > 100 µM
